Measured Kp at 120 min, listed per entry for reference.
assay: Evaluation of blood-brain barrier (BBB) after peritoneal injection in rats; type: in vivo; details: Sprague-Dawley, rat, brain; SD rats, intraperitoneal 10 mg/kg, 120 min; read-out: T/P Ratio Brain (brain tissue)
Write the number on its own, no unit after it.

- NC(=O)[C@@H]1C[C@H](F)CN1Cc1ccc(OCc2cccc(F)c2)cc1: 3.34

Turning to the following molecule.
Answer with the recorded Kp at 120 min for the molecule listed here: NC(=O)[C@@H]1C[C@H](F)CN1Cc1ccc(OCc2cccc(F)c2)cc1F 2.3

====

assay: Pharmacokinetic evaluation after intravenous or gavage administration in rats; format: in vivo, SD rats; conditions: SD, rat, plasma, po, i.g group, 5 mg/kg
parameter: MRT inf (h)
The figure you give is taken to be in h; do not add the unit.

Some compounds with recorded MRT inf:
• NC(=O)[C@@H]1C[C@H](F)CN1Cc1ccc(OCc2cccc(F)c2)cc1 = 1.08
• NC(=O)[C@@H]1C[C@H](F)CN1Cc1ccc(OCc2cccc(F)c2)cc1F = 2.11

Turning to the following compound.
Answer with the recorded MRT inf for the compound listed here: NC(=O)[C@@H]1C[C@@H](F)CN1Cc1ccc(OCc2cccc(F)c2)cc1 1.31
